Test system: L1210
assay overview: L1210 cytotoxicity, inhibition at fixed doses (Table 10)
Assay type: cell-based, murine
condition description: dose 250 ng/mL, tested 4/22/1990
readout kind: Inhibition (%)
Could you write the number and then its unit?

Lookup result for CC[C@H](C)[C@H]1NC(=O)[C@@H](NC(=O)[C@@H](CC(C)C)N(C)C(=O)[C@@H]2CCCN2C(=O)[C@H](C)O)[C@@H](C)OC(=O)[C@H](CC2CCCCC2)N(C)C(=O)[C@@H]2CCCN2C(=O)[C@H](CC(C)C)NC(=O)[C@@H](C)C(=O)[C@H](C(C)C)OC(=O)C[C@@H]1O [[H6 -N-MePhe^5] didemnin B (118), [Hexahydro-N-MePhe^5]didemnin B] ; measured Inhibition (%): 99%

###

Tested on: L1210
condition description: Table 1 footnote and text
Numbered stars: 1 amine (or outer) side, 2 acyl side, 3 side chain; on linkers, the order of the positions; unused ones are H or OH. Bridge positions count the residues as written; N and C are the ends. Square brackets hold non-standard residues; d marks the D form. Peptide text beside a SMILES is read from it. * marks the point of attachment. X1 = CC[C@H](C)[C@@H](N[*:1])[C@@H](O)CC(=O)O[C@H](C(=O)[C@H](C)C(=O)[*:2])C(C)C; NMeY = CN[C@@H](Cc1ccc(O)cc1)C(=O)O; Stearoyl = CCCCCCCCCCCCCCCCCC(=O)*; dNMeL = CN[C@H](CC(C)C)C(=O)O; Lauroyl = CCCCCCCCCCCC(=O)*

- compound: "CCCCCCCCCCCCCCCCCC(=O)N(C)[C@H](CC(C)C)C(=O)N[C@@H]1C(=O)N[C@H]([C@@H](C)CC)[C@@H](O)CC(=O)O[C@@H](C(C)C)C(=O)[C@H](C)C(=O)N[C@@H](CC(C)C)C(=O)N2CCC[C@H]2C(=O)N(C)[C@@H](Cc2ccc(OC)cc2)C(=O)O[C@@H]1C [stearoyl, N-stearoyl didemnin A] (Stearoyl-[dNMeL]T[X1]LP[NMeY](Me); ester 2-C)"
  cytotoxicity (result in words): "inactive"
- compound: "CCCCCCCCCCCC(=O)N(C)[C@H](CC(C)C)C(=O)N[C@@H]1C(=O)N[C@H]([C@@H](C)CC)[C@@H](O)CC(=O)O[C@@H](C(C)C)C(=O)[C@H](C)C(=O)N[C@@H](CC(C)C)C(=O)N2CCC[C@H]2C(=O)N(C)[C@@H](Cc2ccc(OC)cc2)C(=O)O[C@@H]1C [lauroyl, N-lauroyl didemnin A] (Lauroyl-[dNMeL]T[X1]LP[NMeY](Me); ester 2-C)"
  cytotoxicity (result in words): "inactive"

###

System: L1210 murine leukemia cells
condition description: Table 9
Numbered stars: 1 amine (or outer) side, 2 acyl side, 3 side chain; on linkers, the order of the positions; unused ones are H or OH. Bridge positions count the residues as written; N and C are the ends. Square brackets hold non-standard residues; d marks the D form. Peptide text beside a SMILES is read from it. * marks the point of attachment. X1 = CC[C@H](C)[C@@H](N[*:1])[C@@H](O)CC(=O)O[C@H](C(=O)[C@H](C)C(=O)[*:2])C(C)C; NMeY = CN[C@@H](Cc1ccc(O)cc1)C(=O)O; dNMeL = CN[C@H](CC(C)C)C(=O)O; pGlu = O=C1CC[C@@H](C(=O)O)N1; Isobutyryl = CC(C)C(=O)*; Lac = C[C@H](O)C(=O)O
readout kind: Cytotoxicity L1210 IC50

Lookup result for CC[C@H](C)[C@H]1NC(=O)[C@@H](NC(=O)[C@@H](CC(C)C)N(C)C(=O)[C@@H]2CCCN2C(=O)C(C)O)[C@@H](C)OC(=O)[C@H](Cc2ccc(OC)cc2)N(C)C(=O)[C@@H]2CCCN2C(=O)[C@H](CC(C)C)NC(=O)[C@@H](C)C(=O)[C@H](C(C)C)OC(=O)C[C@@H]1O (stereo partly drawn) [Didemnin B (17), Didemnin B, reference compound] ; measured Cytotoxicity L1210 IC50: 0.0005 µg/mL

Lookup result for CC[C@H](C)[C@H]1NC(=O)[C@@H](NC(=O)[C@@H](CC(C)C)N(C)C(=O)[C@@H]2CCCN2C(=O)[C@H](C)OC(=O)[C@H](CCC(N)=O)NC(=O)[C@@H]2CCC(=O)N2)[C@@H](C)OC(=O)[C@H](Cc2ccc(OC)cc2)N(C)C(=O)[C@@H]2CCCN2C(=O)[C@H](CC(C)C)NC(=O)[C@@H](C)C(=O)[C@H](C(C)C)OC(=O)C[C@@H]1O [Didemnin M (12), Didemnin M] ([pGlu]Q[Lac]P[dNMeL]T[X1]LP[NMeY](Me); ester 6-C) ; measured Cytotoxicity L1210 IC50: 0.0004 µg/mL

Lookup result for CC[C@H](C)[C@H]1NC(=O)[C@@H](NC(=O)[C@@H](CC(C)C)NC)[C@@H](C)OC(=O)[C@H](Cc2ccc(OC)cc2)N(C)C(=O)[C@@H]2CCCN2C(=O)[C@H](CC(C)C)NC(=O)[C@@H](C)[C@@H](O)[C@H](C(C)C)OC(=O)C[C@@H]1OC(C)=O ; measured Cytotoxicity L1210 IC50: 1 µg/mL

Lookup result for CC[C@H](C)[C@H]1NC(=O)[C@@H](NC(=O)[C@@H](CC(C)C)N(C)C(=O)[C@H]2CCCN2C(=O)C(C)C)[C@@H](C)OC(=O)[C@H](Cc2ccc(OC)cc2)N(C)C(=O)[C@@H]2CCCN2C(=O)[C@H](CC(C)C)NC(=O)[C@@H](C)C(=O)[C@H](C(C)C)OC(=O)C[C@@H]1O [[Isobutyryl^9 -D-Pro^8]didemnin B] (Isobutyryl-[dP][dNMeL]T[X1]LP[NMeY](Me); ester 3-C) ; measured Cytotoxicity L1210 IC50: 0.01 µg/mL

Lookup result for CC[C@H](C)[C@H]1NC(=O)[C@@H](NC(=O)[C@@H](CC(C)C)NC)[C@@H](C)OC(=O)[C@H](Cc2ccc(OC)cc2)N(C)C(=O)[C@@H]2CCCN2C(=O)[C@H](CC(C)C)NC(=O)[C@@H](C)C(=O)[C@H](C(C)C)OC(=O)C[C@@H]1OC(C)=O [O-Acetyldidemnin A (114), O-Acetyldidemnin A] ; measured Cytotoxicity L1210 IC50: 0.3 µg/mL

Lookup result for CC[C@H](C)[C@@H]1NC(=O)[C@@H](NC(=O)[C@H](CC(C)C)N(C)C(C)=O)[C@H](C)OC(=O)[C@H](Cc2ccc(OC)cc2)N(C)C(=O)[C@@H]2CCCN2C(=O)[C@H](CC(C)C)NC(=O)[C@@H](C)C(=O)[C@H](C(C)C)OC(=O)C[C@@H]1OC(C)=O [Diacetyldidemnin A (32), N,O-Diacetyldidemnin A] ; measured Cytotoxicity L1210 IC50: 0.015 µg/mL

The reported measurements were obtained from patent US5294603A.
